# Assay System: Neuronal acetylcholine receptor; alpha4/beta2 (Rattus norvegicus, UniProt P09483+P12390)
# Sequence (P09483 whole entry): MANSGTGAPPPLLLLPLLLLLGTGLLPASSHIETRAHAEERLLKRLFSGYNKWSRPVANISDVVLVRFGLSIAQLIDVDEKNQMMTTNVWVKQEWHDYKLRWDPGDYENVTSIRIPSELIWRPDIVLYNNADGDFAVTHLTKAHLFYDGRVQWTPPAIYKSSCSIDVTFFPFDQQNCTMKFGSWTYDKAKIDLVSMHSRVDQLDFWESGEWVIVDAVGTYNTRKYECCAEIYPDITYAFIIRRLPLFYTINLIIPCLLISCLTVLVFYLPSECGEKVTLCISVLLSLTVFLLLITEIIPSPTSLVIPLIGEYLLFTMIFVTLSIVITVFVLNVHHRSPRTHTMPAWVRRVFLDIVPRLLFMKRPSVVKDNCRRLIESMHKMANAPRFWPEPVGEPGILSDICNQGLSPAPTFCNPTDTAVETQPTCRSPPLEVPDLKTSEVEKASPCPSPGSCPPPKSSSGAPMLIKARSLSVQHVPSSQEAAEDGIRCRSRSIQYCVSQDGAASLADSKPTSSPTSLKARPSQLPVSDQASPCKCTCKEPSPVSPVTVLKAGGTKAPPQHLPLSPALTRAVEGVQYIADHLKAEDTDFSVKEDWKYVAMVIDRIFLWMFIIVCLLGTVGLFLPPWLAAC
# Sequence (P12390 whole entry): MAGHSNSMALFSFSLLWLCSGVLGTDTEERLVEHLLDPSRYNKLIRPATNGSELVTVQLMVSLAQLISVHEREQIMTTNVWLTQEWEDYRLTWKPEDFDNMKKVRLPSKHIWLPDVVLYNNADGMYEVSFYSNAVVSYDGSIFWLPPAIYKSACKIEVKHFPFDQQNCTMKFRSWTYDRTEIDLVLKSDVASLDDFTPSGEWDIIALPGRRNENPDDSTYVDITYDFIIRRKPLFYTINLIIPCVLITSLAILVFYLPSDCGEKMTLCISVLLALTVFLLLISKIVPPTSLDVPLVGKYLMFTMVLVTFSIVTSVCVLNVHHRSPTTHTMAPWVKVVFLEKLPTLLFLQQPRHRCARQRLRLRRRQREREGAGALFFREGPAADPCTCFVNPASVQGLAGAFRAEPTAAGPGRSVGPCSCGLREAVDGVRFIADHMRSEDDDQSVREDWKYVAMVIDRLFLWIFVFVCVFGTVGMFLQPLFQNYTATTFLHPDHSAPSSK
# Measurement Description: Displacement of [3H]-epibatidine from rat alpha4beta2 nACh receptor expressed in rat cortical membrane preincubated for 30 mins followed by radioligand addition by […] analysis
Recorded Endpoint: pKi
Answers are plain numbers, as −log10 of the molar value.

Example cases with answers are listed next.
# Compound, Observed Value
measured = [
    ("OCc1cccc(C2=NCCCC2)c1", 4.46),
    ("OCc1cccc([C@H]2C[C@@H]3CC[C@H]2N3)c1 (racemic)", 6.37),
]

Working through the 3 compounds below one at a time, give pKi for each.
1. c1cncc(C2=NCCCC2)c1
2. Oc1cccc([C@H]2C[C@@H]3CC[C@H]2N3)c1 (racemic)
3. Brc1cccc(C2=NCCCC2)c1

Response:
1. 7.17
2. 6.90
3. 5.30

Working through the 5 compounds below one at a time, give pKi for each.
1. Oc1cccc(C2=NCCCC2)c1
2. OCc1cc(F)cc(C2=NCCCC2)c1
3. Ic1cccc(C2=NCCCC2)c1
4. Cc1cccc(C2=NCCCC2)c1
5. Fc1cc(Br)cc(C2=NCCCC2)c1

Response:
1. 4.49
2. 6.13
3. 5.42
4. 5.84
5. 5.75

====

# Species: Homo sapiens
# Measurement Description: Selectivity ratio of Ki for rat alpha4beta2 nACh receptor to Ki for human alpha3beta4 nACh receptor
In this scheme, each record receives a class according to its Ratio Ki; the ranges are 0: < 9; 1: ≥ 9 and < 100; 2: ≥ 100

Use these answered entries as a reference point.
# Compound, Class
measured = [
    ("OCc1cccc([C@H]2C[C@@H]3CC[C@H]2N3)c1 (racemic)", 0),
    ("OCc1cccc(C2=NCCCC2)c1", 2),
    ("Oc1cccc([C@H]2C[C@@H]3CC[C@H]2N3)c1 (racemic)", 0),
    ("Oc1cccc(C2=NCCCC2)c1", 1),
    ("Brc1cc(Br)cc(C2=NCCCC2)c1", 2),
]

Prompt: Given Fc1cccc(C2=NCCCC2)c1 , name the class its Ratio Ki places it in.
Response: 1

====

I'd appreciate it if you could supply Ratio Ki values for the items below.
# Species on record: Homo sapiens
# Measurement Description: Selectivity ratio of Ki for rat alpha7 nACh receptor to Ki for human alpha3beta4 nACh receptor
One number for each entry.

Example cases with answers are listed next.
# Compound, Recorded Endpoint, Observed Value
data = [
    ("Cc1cccc(C2=NCCCC2)c1", "Ratio Ki", 2.5),
    ("c1ccc(C2=NCCCC2)cc1", "Ratio Ki", 12),
    ("OCc1cccc(C2=NCCCC2)c1", "Ratio Ki", 2),
]

Working through the 2 compounds below one at a time, give Ratio Ki for each.
1. Fc1cc(Br)cc(C2=NCCCC2)c1
2. Clc1cccc(C2=NCCCC2)c1

Response:
4.3
5.1

====

I'd appreciate it if you could supply Ki values for the items below.
# Assay System: Neuronal acetylcholine receptor; alpha3/beta4 (Homo sapiens, UniProt P30926+P32297)
# Sequence (P30926 whole entry): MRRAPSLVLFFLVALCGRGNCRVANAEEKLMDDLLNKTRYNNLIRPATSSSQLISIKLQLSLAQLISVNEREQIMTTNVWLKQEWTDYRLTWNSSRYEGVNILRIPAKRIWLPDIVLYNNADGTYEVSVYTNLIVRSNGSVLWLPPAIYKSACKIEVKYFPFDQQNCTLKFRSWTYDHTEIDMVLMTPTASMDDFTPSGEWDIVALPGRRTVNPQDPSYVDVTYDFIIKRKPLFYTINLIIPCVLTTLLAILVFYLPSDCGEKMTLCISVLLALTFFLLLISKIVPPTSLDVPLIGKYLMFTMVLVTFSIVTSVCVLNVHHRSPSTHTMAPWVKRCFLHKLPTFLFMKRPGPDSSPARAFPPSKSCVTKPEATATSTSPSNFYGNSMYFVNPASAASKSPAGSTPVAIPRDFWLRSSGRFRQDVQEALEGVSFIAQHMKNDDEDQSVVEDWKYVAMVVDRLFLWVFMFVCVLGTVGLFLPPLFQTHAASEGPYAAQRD
# Sequence (P32297 whole entry): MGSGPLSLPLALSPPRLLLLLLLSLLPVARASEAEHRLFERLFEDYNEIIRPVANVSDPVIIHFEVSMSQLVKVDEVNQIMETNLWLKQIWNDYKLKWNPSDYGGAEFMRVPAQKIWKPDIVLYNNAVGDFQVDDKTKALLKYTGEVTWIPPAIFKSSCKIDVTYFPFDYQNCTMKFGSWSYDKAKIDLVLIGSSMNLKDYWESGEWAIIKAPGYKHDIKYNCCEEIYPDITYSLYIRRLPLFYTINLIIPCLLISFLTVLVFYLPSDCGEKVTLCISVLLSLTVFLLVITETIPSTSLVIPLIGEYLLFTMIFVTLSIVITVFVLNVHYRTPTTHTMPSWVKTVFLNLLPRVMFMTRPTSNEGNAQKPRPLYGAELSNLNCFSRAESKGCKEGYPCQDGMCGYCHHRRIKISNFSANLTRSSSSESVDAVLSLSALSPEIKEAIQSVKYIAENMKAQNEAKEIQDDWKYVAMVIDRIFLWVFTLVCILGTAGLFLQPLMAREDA
# Measurement Description: Displacement of [3H]-epibatidine from human alpha3beta4 nACh receptor expressed in HEK293 cells preincubated for 5 mins followed by radioligand addition by beta counting analysis

Working through the 7 compounds below one at a time, give Ki for each.
1. OCc1cc(F)cc(C2=NCCCC2)c1
2. Brc1cc(Br)cc(C2=NCCCC2)c1
3. c1cncc(C2=NCCCC2)c1
4. OCc1cccc([C@H]2C[C@@H]3CC[C@H]2N3)c1 (racemic)
5. Clc1cccc(C2=NCCCC2)c1
6. Fc1cccc(C2=NCCCC2)c1
7. Cc1cccc(C2=NCCCC2)c1

Response:
1. 80 nM
2. 70.8 nM
3. 107 nM
4. 92 nM
5. 77.2 nM
6. 108 nM
7. 155 nM

Working through the 2 compounds below one at a time, give Ki for each.
1. Oc1cccc([C@H]2C[C@@H]3CC[C@H]2N3)c1 (racemic)
2. OCc1cccc(C2=NCCCC2)c1

Response:
80 nM
80 nM
